The values you see were collected from patent US8937091B2.

# Tested on: IICR (IP3 induced calcium release) in CHO cells
# protocolNotes: Assay of IICR (IP3 induced calcium release)-inhibiting action
# Format: cell-based, Chinese hamster
# testSettings: Cricetulus griseus, CHO, test compound 10 μmol; CHO cells, 10 μM ATP; read-out: IICR level (percentage of inhibition)
readoutName: inhibition at 10 µM
Give your result as the value with the unit written after it.

CCN(CCC(=O)c1nccs1)Cc1ccccc1; 40%
COC(=O)C(CSSCC(NCCC(=O)c1ccc(I)s1)C(=O)OC)NCCC(=O)c1ccc(I)s1 (stereo not shown); 49%
CC(C)N(CCO)CCC(=O)c1cccnc1; 30%
CC(C)N(CCO)CCC(=O)n1ccnc1; 10%

# input What inhibition at 10 µM value was documented for this molecule, "CCc1nccnc1C(=O)CCN(Cc1ccccc1)C(C)C" ?
# output 70%

# input Another molecule: "CC(C)N(CCO)CCC(=O)c1cc(Cl)sc1Cl"
# output 40%

# input Another molecule: "CC(C)N(CCC(=O)n1nnc2ccccc21)Cc1ccccc1"
# output 80%

# input Another molecule: "O=C(CCNc1ccccc1O)c1ccc(Br)s1"
# output 20%

# input Another molecule: "O=C(CCNCc1ccccc1)c1ccncc1"
# output 10%

# input Another molecule: "CC(C)N(CCO)CC(=O)c1ccccc1"
# output 0%
